Tested Target: PXR (Nuclear receptor subfamily 1 group I member 2) (Homo sapiens)
Sequence (O75469 whole entry, the tested form may be a part): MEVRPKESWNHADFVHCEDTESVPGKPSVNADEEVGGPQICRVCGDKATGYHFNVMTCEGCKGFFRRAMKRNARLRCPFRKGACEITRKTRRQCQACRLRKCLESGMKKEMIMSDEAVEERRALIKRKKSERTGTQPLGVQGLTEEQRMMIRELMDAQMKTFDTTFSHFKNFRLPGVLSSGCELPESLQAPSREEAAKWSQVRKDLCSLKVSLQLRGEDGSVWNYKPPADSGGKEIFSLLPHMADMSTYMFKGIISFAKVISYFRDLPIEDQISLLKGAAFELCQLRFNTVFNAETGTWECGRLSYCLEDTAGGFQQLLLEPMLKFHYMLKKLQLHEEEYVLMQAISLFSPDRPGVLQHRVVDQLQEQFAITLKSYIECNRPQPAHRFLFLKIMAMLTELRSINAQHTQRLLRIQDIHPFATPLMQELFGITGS
Protocol: Agonist activity at His-tagged PXR-LBD/SRC-1p (unknown origin) expressed in Escherichia coli BL21(DE3) by coactivator recruitment based Alpha-screen assay relative to T0901317
Test Context: read-out: Efficacy
Endpoint Label: Emax (%)
Express your answer in %, writing the number without its unit.

Cc1c(C)c2c(c(C)c1O)CC[C@@](C)(CCCC(C)CCCC(C)CCCC(C)CO)O2 (stereo partly specified)    14
Cc1cc(O)cc2c1O[C@](C)(CCC[C@H](C)CCC[C@H](C)CCCC(C)CO)CC2 (stereo partly specified)    24

Reported Emax, compound `C/C(=C\CC/C(C)=C/CC[C@]1(C)CCc2cc(O)cc(C)c2O1)CC/C=C(\C)C(=O)O` : ____
103

Reported Emax, compound Cc1c(C)c2c(c(C)c1O)CC[C@@](C)(CCC[C@H](C)CCC[C@H](C)CCCC(C)C(=O)O)O2 (stereo partly specified) : ____
11

Reported Emax, compound `C/C(=C\CC/C(C)=C/CC[C@]1(C)CCc2cc(O[C@@H]3O[C@H](C(=O)O)[C@@H](O)[C@H](O)[C@H]3O)cc(C)c2O1)CC/C=C(\C)C(=O)O` : ____
14

Reported Emax, compound Cc1cc(O)cc2c1O[C@](C)(CCC[C@H](C)CCC[C@H](C)CCCC(C)C(=O)O)CC2 (stereo partly specified) : ____
18

====

Tested Target: Oxysterols receptor LXR-beta (Homo sapiens) (UniProt P55055)
Sequence (whole entry): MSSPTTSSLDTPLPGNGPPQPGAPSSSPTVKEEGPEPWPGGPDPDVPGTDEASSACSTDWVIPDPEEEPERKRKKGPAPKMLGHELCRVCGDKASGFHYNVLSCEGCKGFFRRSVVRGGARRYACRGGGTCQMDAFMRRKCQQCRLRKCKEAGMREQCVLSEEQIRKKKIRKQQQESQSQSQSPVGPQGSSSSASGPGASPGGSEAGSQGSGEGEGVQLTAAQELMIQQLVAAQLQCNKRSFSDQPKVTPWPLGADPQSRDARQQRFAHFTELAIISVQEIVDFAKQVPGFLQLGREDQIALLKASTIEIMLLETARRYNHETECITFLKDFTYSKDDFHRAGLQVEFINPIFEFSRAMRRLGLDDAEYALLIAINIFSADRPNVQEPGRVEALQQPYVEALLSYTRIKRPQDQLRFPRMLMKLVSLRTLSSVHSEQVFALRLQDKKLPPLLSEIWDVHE
Protocol: Agonist activity at LXR-beta (unknown origin) at 10 uM by coactivator recruitment based Alpha-screen assay
The source made the active and inactive calls. The calls are words filed in the database; no cut-off is given here.
Endpoint Label: Activity

The examples below pair each entry with its known result.
CC(C)=CCC/C(C)=C/CC/C(C)=C/CC[C@]1(C)CCc2cc(O)cc(C)c2O1 [DELTA-TOCOTRIENOL]    inactive
C/C(=C\CC/C(C)=C/CC[C@]1(C)CCc2cc(O)cc(C)c2O1)CC/C=C(\C)C(=O)O    inactive
Cc1c(O)cc2c(c1C)O[C@](C)(CCC[C@H](C)CCC[C@H](C)CCCC(C)C)CC2 [GAMMA-TOCOPHEROL]    inactive
Cc1c(C)c2c(c(C)c1O)CC[C@@](C)(CCC(=O)O)O2    inactive

Turning now to a further molecule:
Reported Activity, molecule Cc1c(C)c2c(c(C)c1O)CC[C@@](C)(CCC[C@H](C)CCC[C@H](C)CCCC(C)C)O2 [ALPHA-TOCOPHEROL] : ____
inactive

Origin of values: ChEMBL document CHEMBL4402582
